Each recorded value in this set is attributed to patent US7767659B2.

Tested on: LoVo
Test: cells
Settings: Homo sapiens, LoVo, 48 h, read-out: LOVO GI50
# label = y if GI50 < 0.01 µM else n

Sample answers from the record:
{"Compound": "COc1c(C)cc2c(c1O)[C@H]1N[C@@H](C2)[C@H](O)N2C1[C@@H]1SCC(NC(C)=O)C(=O)OC[C@H]2c2c3c(c(C)c(OC(C)=O)c21)OCO3 (some centres unmarked)", "Cat": "y"}
{"Compound": "COc1cc2c(cc1O)CCN[C@]21CS[C@@H]2c3c(O)c(C)c4c(c3[C@H](COC1=O)N1C2[C@@H]2N[C@@H](Cc3cc(C)c(OC)c(O)c32)[C@@H]1O)OCO4 (some centres unmarked)", "Cat": "n"}

Problem: Determine whether this compound shows GI50 lower than 0.01 µM (ties excluded): COc1cc2c(cc1O)CCN[C@]21C[S+]([O-])[C@@H]2c3c(OC(C)=O)c(C)c4c(c3[C@H](COC1=O)N1C2C2c3c(cc(C)c(OC)c3O)C[C@@H]([C@@H]1O)N2C)OCO4 (some centres unmarked) [Et-759B]
Result: n

Problem: Confirm or reject: GI50 of C=CCN1[C@@H]2c3c(cc(C)c(OC)c3OC(=O)OC(C)(C)C)C[C@H]1[C@H](C#N)N1C2[C@@H]2SC[C@]3(NCCc4cc(OC(=O)OC(C)(C)C)c(OC)cc43)C(=O)OC[C@H]1c1c3c(c(C)c(OC(C)=O)c12)OCO3 (some centres unmarked) lies strictly below 0.01 µM
Result: n

Problem: Say whether its GI50 is strictly beneath 0.01 µM. Entry: COc1cc2c(cc1O)CCN[C@]21CS[C@@H]2c3c(OC(=O)/C=C/c4ccccc4)c(C)c4c(c3[C@H](COC1=O)N1C2[C@@H]2N[C@@H](Cc3cc(C)c(OC)c(O)c32)[C@@H]1O)OCO4 (some centres unmarked)
Result: y

###

System: SK-BR-3
Assay: Inhibition of cells growth by colorimetric assay (SRB)
Conditions: read-out: SK-BR3 LC50; SK-BR3; SRB, 48 hours exposure
Value Kind: CC50 (nM)
Hi! Could you send only the number? It should be in nM, unit omitted.

Problem: Kindly state the measured CC50 obtained for COC1=C(C)C(=O)C2=C(C1=O)C1C3C4SCC(NC(C)=O)C(=O)OCC(c5c6c(c(C)c(OC(C)=O)c54)OCO6)N3C(O)C(C2)N1C (stereo not shown) with SK-BR-3.
Result: 8.51

###

Tested on: LoVo
Assay: cells
Settings: Homo sapiens, LoVo, 48 h, read-out: LOVO GI50
Value Kind: GI50 (nM)
Give a bare numeral; the unit nM is implied.

{"Compound": "COC1=C(C)C(=O)C2=C(C1=O)C1C3[C@@H]4SCC(=O)C(=O)OC[C@@H](c5c6c(c(C)c(OC(C)=O)c54)OCO6)N3[C@@H](O)[C@H](C2)N1C (stereo partly shown)", "Obs Value": 759}
{"Compound": "C=CCN1[C@@H]2c3c(cc(C)c(OC)c3O)C[C@H]1[C@H](C#N)N1C2[C@@H]2SC[C@]3(NCCc4cc(OC(=O)OC(C)(C)C)c(OC)cc43)C(=O)OC[C@H]1c1c3c(c(C)c(OC(C)=O)c12)OCO3 (stereo partly shown)", "Obs Value": 33.9}
{"Compound": "C=CCN1[C@@H]2c3c(cc(C)c(OC)c3O)C[C@H]1[C@H](O)N1C2[C@@H]2SC[C@]3(NCCc4cc(O)c(OC)cc43)C(=O)OC[C@H]1c1c3c(c(C)c(OC(C)=O)c12)OCO3 (stereo partly shown)", "Obs Value": 28.6}

Below: the item to evaluate.
Problem: Entry C=CCN1[C@@H]2c3c(cc(C)c(OC)c3O)C[C@H]1[C@H](C#N)N1C2[C@@H]2SC[C@]3(NCCc4c3[nH]c3ccc(O)cc43)C(=O)OC[C@H]1c1c3c(c(C)c(OC(C)=O)c12)OCO3 (stereo partly shown) has what GI50?
Result: 85.9
